- ASSAY TEXT: AUC in rat at 1 mg/kg, iv
- Assay type: ADME, organism-based
- Parameters: dose 1 mg/kg, route intravenous
- CONDITION PARAMETERS: plasma
VALUE KIND: AUC (ng·h/mL)
# value in ng·h/mL; strip the unit string

Sample answers from the record:
C[C@@H]1CCCN1CCCOc1ccc(-c2nn(C)c(=O)c3c2CCC3)cc1 | 182
Cn1nc(-c2ccc(OCCCN3CCCCC3)cc2)c2ccccc2c1=O | 402

Below: the item to evaluate.
Short answer for `CC(C)n1nc(-c2ccc(OCCCN3CCC[C@H]3C)cc2)c2sccc2c1=O` : AUC was 160
